- Tested on: SMN2 minigene mRNA (SMN2-A minigene) in HEK293H cells
- experimentDescription: SMN2 minigene mRNA splicing RT-qPCR assay in cultured cells
- Assay type: cell-based, human
- testParameters: Homo sapiens, HEK293-H; concentration increasing full length SMN2 mRNA 1.5-fold relative to vehicle-treated cells; HEK293H cells with SMN2-A minigene, 24 hours, 7-point concentration data; read-out: EC1.5x for production of full length SMN2 mRNA
metric: EC (1.5-fold increase)

The examples below pair each entry with its known result.
[
  {
    "molecule": "COc1ccc(-c2cc(=O)n3cc(N4CCCNCC4)ccc3n2)cc1 [Compound 5]",
    "EC (1.5-fold increase)": "3 to 30 µM"
  },
  {
    "molecule": "Cc1nc2ccc(-c3cc(=O)n4nc(C5CCNCC5)ccc4n3)cc2s1.O=C(O)C(F)(F)F [Cpd 380]",
    "EC (1.5-fold increase)": "0.1 to 0.3 µM"
  },
  {
    "molecule": "Cc1nc2ccc(-c3cc(=O)n4cc(N5CC[C@@H](N(C)C)C5)ccc4n3)cc2s1 [Compound 383]",
    "EC (1.5-fold increase)": "0.3 to 1 µM"
  }
]

Take each entry in turn and give its EC (1.5-fold increase).
1. CCc1cc(-c2cc(=O)n3cc(N4CCN5CCC[C@H]5C4)ccc3n2)cn2cc(C)nc12 [Compound 795]
2. CN1CCC(c2cn3c(=O)cc(-c4ccc5nn(C)cc5c4)nc3cn2)CC1 [Compound 567]

Response:
1. < 0.1 µM
2. 0.1 to 0.3 µM

Take each entry in turn and give its EC (1.5-fold increase).
1. O=c1cc(-c2ccc3c(c2)OCCO3)nc2ccc(N3CCNCC3)cn12 [Compound 31]
2. Cc1cn2cc(-c3cc(=O)n4cc(C5=CCN(C(C)C)CC5)ccc4n3)ccc2n1 [Compound 565]
3. CCCc1nc(C)cn2nc(-c3cc(=O)n4cc(N5CCN(CC)CC5)ccc4n3)cc12 [Compound 725]

Response:
1: 1 to 3 µM; 2: < 0.1 µM; 3: 0.1 to 0.3 µM

----------
For each entry below, report its melting point value.

Take each entry in turn and give its melting point.
1. CCN1CCC(c2ccc3nc(-c4ccn5cc(C)nc5c4)cc(=O)n3c2)CC1
2. COc1ccc(-c2cc(=O)n3cc(N4CCC(NC5CC5)CC4)cc(C)c3n2)cc1OC
3. Cc1nc2ccc(-c3cc(=O)n4cc(N5CCCN(C)CC5)ccc4n3)cc2s1
4. Cn1cc2cc(-c3cc(=O)n4cc(C5CCN(CCO)CC5)ccc4n3)ccc2n1
5. COc1cccc(-c2cc(=O)n3cc(N4CCN[C@H](C)C4)ccc3n2)c1

Response:
["229 to 233 °C", "141 °C", "158 to 160 °C", "170 to 172 °C", "164 to 166 °C"]

----------
For each entry below, report its EC (1.5-fold increase) value.
- System: SMN2 minigene mRNA (SMN2-A minigene) in HEK293H cells
- experimentDescription: SMN2 minigene mRNA splicing RT-qPCR assay in cultured cells
- Assay type: cell-based, human
- testParameters: Homo sapiens, HEK293-H; concentration increasing full length SMN2 mRNA 1.5-fold relative to vehicle-treated cells; HEK293H cells with SMN2-A minigene, 24 hours, 7-point concentration data; read-out: EC1.5x for production of full length SMN2 mRNA

The examples below pair each entry with its known result.
[
  {
    "molecule": "COc1ccc(-c2cc(=O)n3cc(N4CCNCC4)ccc3n2)cc1OC(F)(F)F [Cpd 81]",
    "EC (1.5-fold increase)": "0.3 to 1 µM"
  },
  {
    "molecule": "COc1ccc(-c2cc(=O)n3cc(N4CCN5CCC[C@@H]5C4)cc(C)c3n2)cc1OC [Compound 414]",
    "EC (1.5-fold increase)": "< 0.1 µM"
  }
]

Take each entry in turn and give its EC (1.5-fold increase).
1. Cc1nc2ccc(-c3cc(=O)n4cc(N5CCN6CCC[C@@H]6C5)ccc4n3)cc2s1 [Compound 284]
2. COc1ccc(-c2ccc3nc(C4=CCNCC4)cc(=O)n3c2)cc1F [Cpd 294]
3. Cc1cn2cc(-c3ccc4nc(C5=CCN(C)CC5)cc(=O)n4c3)ccc2n1 [Compound 376]
4. CCc1nc(C)cn2nc(-c3cc(=O)n4cc(N(C)CCN(C)C)ccc4n3)cc12 [Compound 825]
5. Cc1cn2cc(-c3cc(=O)n4cc(N5CCN6CCC[C@H]6C5)ccc4n3)cc(Cl)c2n1 [Compound 293]

Response:
0.3 to 1 µM
< 0.1 µM
< 0.1 µM
0.3 to 1 µM
< 0.1 µM

Query: # input molecule: COc1ccc(-c2cc(=O)n3cc(N4CCN[C@@H](C)C4)ccc3n2)cc1F [Compound 87] ; wanted: its EC (1.5-fold increase)
Response: 0.1 to 0.3 µM

----------
For each entry below, report its melting point value.

[
  {
    "molSmiles": "COc1ccc(-c2cc(=O)n3cc(N4CCN[C@@H](C)C4)ccc3n2)cc1",
    "melting point": "158 to 160 °C"
  },
  {
    "molSmiles": "COc1ccc(-c2cc(=O)n3cc(C4=CCN(C5CC5)CC4)cc(C)c3n2)cc1OC",
    "melting point": "180 to 189 °C"
  },
  {
    "molSmiles": "COc1ccc(-c2cc(=O)n3cc(-c4ccnc(C)c4)ccc3n2)cc1OC",
    "melting point": "197 to 200 °C"
  }
]

Kindly consider the entry below.
Query: # input compound: Cc1cn2nc(-c3cc(=O)n4cc(N5CCC(N(C)C)CC5)ccc4n3)cc2c(C)n1 ; wanted: its melting point
Response: 208 to 210 °C

----------
For each entry below, report its EC (1.5-fold increase) value.
- Test system: SMN2 minigene mRNA (SMN2-A minigene) in HEK293H cells
- experimentDescription: SMN2 minigene mRNA splicing RT-qPCR assay in cultured cells
- Format: cell-based, human
- testParameters: Homo sapiens, HEK293-H; concentration increasing full length SMN2 mRNA 1.5-fold relative to vehicle-treated cells; HEK293H cells with SMN2-A minigene, 24 hours, 7-point concentration data; read-out: EC1.5x for production of full length SMN2 mRNA

The examples below pair each entry with its known result.
[
  {
    "molSmiles": "Cc1cn2cc(-c3cc(=O)n4cc(C5=CCN(CCO)CC5)ccc4n3)ccc2n1",
    "EC (1.5-fold increase)": "< 0.1 µM"
  },
  {
    "molSmiles": "CCc1nc(C)cn2nc(-c3cc(=O)n4cc(N5CC[C@H](N(C)C)C5)ccc4n3)cc12",
    "EC (1.5-fold increase)": "< 0.1 µM"
  },
  {
    "molSmiles": "CCc1nc(C)cn2nc(-c3cc(=O)n4cc(C5CCN(C6COC6)CC5)ccc4n3)cc12",
    "EC (1.5-fold increase)": "0.3 to 1 µM"
  },
  {
    "molSmiles": "COc1ccc(-c2cc(=O)n3cc(N4CCNCC4)c(C)cc3n2)cc1OC",
    "EC (1.5-fold increase)": "1 to 3 µM"
  },
  {
    "molSmiles": "COc1ccc(-c2cc(=O)n3cc(C4=CCNCC4)c(C)cc3n2)cc1OC",
    "EC (1.5-fold increase)": "1 to 3 µM"
  }
]

Take each entry in turn and give its EC (1.5-fold increase).
1. Cc1cn2ccc(-c3cc(=O)n4cc(N5CCN(C)CC5)ccc4n3)cc2n1
2. Cc1nc2cc(-c3cc(=O)n4cc(N5C[C@@H](C)N[C@@H](C)C5)ccc4n3)ccc2s1
3. CCc1cc(N2CCN3CCC[C@@H]3C2)cn2c(=O)cc(-c3ccc(OC)c(OC)c3)nc12
4. COc1ccc(-c2cc(=O)n3cc(N4CCN(O)CC4)ccc3n2)cc1OC

Response:
1: 1 to 3 µM; 2: < 0.1 µM; 3: 0.1 to 0.3 µM; 4: 1 to 3 µM

----------
- System: SMN2 minigene mRNA (SMN2-A minigene) in HEK293H cells
- experimentDescription: SMN2 minigene mRNA splicing RT-qPCR assay in cultured cells
- Type: cell-based, human
- testParameters: Homo sapiens, HEK293-H; concentration increasing full length SMN2 mRNA 1.5-fold relative to vehicle-treated cells; HEK293H cells with SMN2-A minigene, 24 hours, 7-point concentration data; read-out: EC1.5x for production of full length SMN2 mRNA
- Procedure: The reverse transcription-quantitative PCR-based (RT-qPCR) assay is used to quantify the level of the full length SMN2 minigene mRNA containing SMN2 exon 7 in a HEK293H cell line stably transfected with said minigene and treated with a test compound. Protocol. […] The increase of SMN2 minigene FL mRNA relative to that in cells treated with vehicle control is determined from real-time PCR data using a modified ΔΔCt method (as described in Livak and Schmittgen, Methods, 2001, 25:402-8). […]
metric: EC (1.5-fold increase)

The examples below pair each entry with its known result.
[
  {
    "compound": "CCCN1CCN(c2ccc3nc(-c4cc5c(CC)nc(C)cn5n4)cc(=O)n3c2)C[C@H]1C",
    "metric": "EC (1.5-fold increase)",
    "testValue": "0.1 to 0.3 µM"
  },
  {
    "compound": "Cc1cn2nc(-c3cc(=O)n4cc(N5CCN(C)[C@H](C)C5)ccc4n3)cc2c(C)n1",
    "metric": "EC (1.5-fold increase)",
    "testValue": "< 0.1 µM"
  },
  {
    "compound": "COc1ccc(-c2cc(=O)n3cc(N4CCNCC4)ccc3n2)c(OC)c1",
    "metric": "EC (1.5-fold increase)",
    "testValue": "1 to 3 µM"
  },
  {
    "compound": "Cc1nc2ccc(-c3cc(=O)n4cc(N5CCC(N(C)C)CC5)ccc4n3)cc2o1",
    "metric": "EC (1.5-fold increase)",
    "testValue": "< 0.1 µM"
  }
]

Take each entry in turn and give its EC (1.5-fold increase).
1. Cc1nc2cc(-c3cc(=O)n4cc(N5CCN(C)CC5)ccc4n3)ccc2s1
2. CCCN1CCC(c2ccc3nc(-c4cc5c(C)nc(C)cn5n4)cc(=O)n3c2)CC1
3. CCN1CCC(c2ccc3nc(-c4ccc5nn(C)cc5c4)cc(=O)n3c2)CC1

Response:
0.3 to 1 µM
< 0.1 µM
< 0.1 µM

Take each entry in turn and give its EC (1.5-fold increase).
1. O=c1cc(-c2cccc(OC(F)(F)F)c2)nc2ccc(N3CCNCC3)cn12
2. CCc1nc(C)cn2nc(-c3cc(=O)n4cc(N5CC[C@@H](N(C)C)C5)cc(C)c4n3)cc12
3. Cc1cc(-c2cc(=O)n3cc(N4CCN[C@@H](C)C4)ccc3n2)cc2cnn(C)c12
4. Cn1cc2cc(-c3cc(=O)n4cc(C5CCNCC5)ccc4n3)ccc2n1
5. Cc1cn2ccc(-c3cc(=O)n4cc(C5CCN(C)CC5)ccc4n3)cc2n1
6. Cn1ncc2cc(-c3cc(=O)n4cc(N5CCNCC5)ccc4n3)ccc21

Response:
1 to 3 µM
0.1 to 0.3 µM
1 to 3 µM
< 0.1 µM
1 to 3 µM
< 0.1 µM
